# Test system: OVCAR-8
# Assay remarks: NCI tumour cell line growth inhibition, 48 h
Activity calls are given as the source filed them. No stated cut-off is given here; in the data, active = GI50 up to about 1.1 µM and inactive = higher.
Measured GI50 values are reported for all entries that follow.

Here's what some known entries look like.
| Molecule | Assayed system | GI50 |
| --- | --- | --- |
| CCCC1C2=C(C(=O)OC2=O)C2C(CC)CC3=C(C(=O)OC3=O)C12 (stereo unspecified) | OVCAR-8 | > 100 µM (inactive) |
| COc1cccc(-c2cc(O)c3cc(N4CCN(C)CC4)ccc3n2)c1 | OVCAR-8 | 2.01 µM (inactive) |
| Fc1ccc(C2SCc3nc4ccccc4n32)cc1F (stereo unspecified) | OVCAR-8 | 33.8 µM (inactive) |

Inquiry: Provide the documented GI50 with OVCAR-8 as the system for CCOC(=O)COc1cccc2c1C(=O)CCO2
Reply text: > 100 µM (inactive)

Inquiry: Try the molecule CCC1c2[nH]c3ccccc3c2C[C@H]2C(=O)NC(Cc3ccccc3)C(=O)N12 (stereo partly specified)
Reply text: 34.5 µM (inactive)

Inquiry: Try the molecule COc1ccc(C2NC(=S)Nc3c2c(=O)oc2c3ccc3ccccc32)cc1 (stereo unspecified)
Reply text: 92.3 µM (inactive)
